target: human plasma kallikrein (Homo sapiens); test: Kallikrein inhibition assay (FLINT) utilizing a quenched AMC peptide substrate Z-Gly-Pro-Arg-AMC; format: biochemical; details: kinetic (KIN) reads; values in nM; read-out: Kallikrein KIN Inh IC50
Sequence (P03952 391-638 limits assumed): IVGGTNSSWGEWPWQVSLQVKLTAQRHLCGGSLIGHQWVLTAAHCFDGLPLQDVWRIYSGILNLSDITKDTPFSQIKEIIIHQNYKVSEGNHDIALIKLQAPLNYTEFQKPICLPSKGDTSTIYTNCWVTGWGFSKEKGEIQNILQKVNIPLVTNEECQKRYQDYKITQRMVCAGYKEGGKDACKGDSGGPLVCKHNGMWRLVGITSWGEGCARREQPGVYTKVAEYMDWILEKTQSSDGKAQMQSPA
Sequence (P03952 20-390 partner limits assumed): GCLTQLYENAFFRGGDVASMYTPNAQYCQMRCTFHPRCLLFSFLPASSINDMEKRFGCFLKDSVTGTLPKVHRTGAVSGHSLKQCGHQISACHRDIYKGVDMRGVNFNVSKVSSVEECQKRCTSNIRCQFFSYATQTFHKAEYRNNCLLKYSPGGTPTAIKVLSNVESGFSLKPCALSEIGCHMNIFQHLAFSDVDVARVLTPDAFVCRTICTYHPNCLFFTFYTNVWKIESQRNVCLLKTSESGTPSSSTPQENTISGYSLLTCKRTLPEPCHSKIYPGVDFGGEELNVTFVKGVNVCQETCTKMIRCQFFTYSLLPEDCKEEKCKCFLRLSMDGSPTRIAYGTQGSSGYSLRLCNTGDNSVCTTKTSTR
# IC50 per entry
// note: answer is a bare numeric in nM

[[record]]
molecule = "C[C@H]1C[C@@H](c2ncc(-c3ccc4c(=O)cc[nH]c4c3)[nH]2)n2c1nc(-c1c(-n3cnnn3)ccc(Cl)c1F)cc2=O (relative stereo)"
tgt = "human plasma kallikrein (Homo sapiens)"
value_units = "nM"
quantitative_readout = 446

[[record]]
molecule = "Cc1c(-c2cnc([C@@H]3C[C@H](C)c4cc(-c5c(-n6cnnn6)ccc(Cl)c5F)cc(=O)n43)[nH]2)ccnc1C#N (relative stereo)"
tgt = "human plasma kallikrein (Homo sapiens)"
value_units = "nM"
quantitative_readout = 152


Then this molecule:
INPUT: Which IC50 reading was recorded for the molecule C[C@@H]1C[C@H](c2ncc(-c3ccc(NC(=O)C4CC4)nc3)[nH]2)n2c1nc(-c1c(-n3cnnn3)ccc(Cl)c1F)cc2=O (stereo in doubt) ?
OUTPUT: 11.2

Source: patent US20230097157A1
